Test system: LOX IMVI melanoma
Assay: NCI tumour cell line growth inhibition, 48 h
Entries annotated with measured GI50

The following compounds have reported results that may help.
Structure smiles string: O=C(Nc1cc(S(=O)(=O)c2ccc(Cl)cc2)ccc1Cl)c1cc(I)cc(I)c1O
GI50: 18200 nM

Structure smiles string: Cc1cc(=O)oc2cc(OCCn3c(C)nn(-c4ccc(Cl)cc4)c3=O)ccc12
GI50: 4830 nM

Structure smiles string: CC(=O)[CH-]C(=O)c1ccccc1.CC(=O)[CH-]C(=O)c1ccccc1.[CH2-]CCC.[CH2-]CCC.[Sn+4]
GI50: 1060 nM

Structure smiles string: COc1cc(-n2cc(-c3cc(O)c(C/C=C(\C)CCC=C(C)C)c(O)c3)nn2)cc2c1O[C@]1(C)CC[C@@H](O)C(C)(C)[C@H]1C2
GI50: 186 nM

Structure smiles string: CCCn1cnc2c(SCc3ccccc3)nc(N)nc21
GI50: 98900 nM

Structure smiles string: O=c1oc2ccc(F)cc2c(=O)n1-c1ccc(Br)cc1F
GI50: 456 nM

Structure smiles string: CCC(=O)c1cc([N+](=O)[O-])c(Br)s1
GI50: 1880 nM

Structure smiles string: Cc1cc(NC(=O)NC(=O)c2ccccc2N(C)C)ccc1Oc1ncc(Br)cn1
GI50: 582 nM

As a next step, examine the compound that follows.
Exercise: Name the reported GI50 value associated with the compound "Cc1ccc(-n2c3c(c4c(CN5CCOCC5)c(O)ccc42)CCc2ccccc2C3=O)cc1"
Solution: > 100000 nM
